Origin of the recorded values: patent US20050176691A1

system: plasma protein; assay: Distribution: plasma protein binding; format: in vitro ADME; conditions: plasma
Property Label: fraction unbound

The measured fraction unbound that CN(C)CCOc1ccc(/C(=C(/CCCl)c2ccccc2)c2ccccc2)cc1 [Toremifene] showed for plasma protein is < 0.005

----------
assay: Pharmacokinetic profile; assay type: in vivo; conditions: plasma, oral
Property Label: Tmax

# compound CN(C)CCOc1ccc(/C(=C(/CCCl)c2ccccc2)c2ccccc2)cc1 [Toremifene] ; its Tmax = 3 h

----------
experiment: Pharmacokinetic profile; type: in vivo; details: in vivo; read-out: total clearance (volume/unit time) (converted)
Property Label: clearance (mL/min)
One number for each entry, in mL/min.

# molecule `CN(C)CCOc1ccc(/C(=C(/CCCl)c2ccccc2)c2ccccc2)cc1` ; its clearance = 83.3
